This section presents compounds with their documented refractive index values.
assayDetails: refractive index (Na D-line) (dimensionless)
protocolConditions: 313.15 K; 101.33 kPa; Liquid; Standard Abbe refractometry
Numbers after ± are expanded uncertainties.

Could you please provide reported refractive index for CC[n+]1ccccc1C.O=S(=O)([N-]S(=O)(=O)C(F)(F)F)C(F)(F)F ? Thanks!
1.44343 ± 0.00037

Could you please provide reported refractive index for CC[n+]1ccc(C)cc1.O=S(=O)([N-]S(=O)(=O)C(F)(F)F)C(F)(F)F ? Thanks!
1.43954 ± 0.00037

Could you please provide reported refractive index for CC[n+]1cccc(C)c1.O=S(=O)([N-]S(=O)(=O)C(F)(F)F)C(F)(F)F ? Thanks!
1.43904 ± 0.00037

Could you please provide reported refractive index for CC[n+]1ccccc1.O=S(=O)([N-]S(=O)(=O)C(F)(F)F)C(F)(F)F [1-ethylpyridinium bis[(trifluoromethyl)sulfonyl]imide] ? Thanks!
1.43637 ± 0.00037
